B1: EEHEE_rd3_1049 (parent)
chain: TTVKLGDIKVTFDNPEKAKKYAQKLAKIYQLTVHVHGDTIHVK

- Variants of: B1
- ASSAY OVERVIEW: folding stability dG (cDNA display proteolysis); higher = more stable
- PARTICULARS: PBS, room temperature
ENDPOINT NAME: folding stability dG (kcal/mol)
Answers are plain numbers, in kcal/mol.

Worked cases, answers included:
K27A ... 2.03
T32I ... 2.01
V10M ... 2

The value of folding stability dG measured for the variant "E16D" turned out to be 1.96
